TARGET OF ASSAY: T1, human GIP receptor (human) (UniProt P48546)
T1 sequence (looked up): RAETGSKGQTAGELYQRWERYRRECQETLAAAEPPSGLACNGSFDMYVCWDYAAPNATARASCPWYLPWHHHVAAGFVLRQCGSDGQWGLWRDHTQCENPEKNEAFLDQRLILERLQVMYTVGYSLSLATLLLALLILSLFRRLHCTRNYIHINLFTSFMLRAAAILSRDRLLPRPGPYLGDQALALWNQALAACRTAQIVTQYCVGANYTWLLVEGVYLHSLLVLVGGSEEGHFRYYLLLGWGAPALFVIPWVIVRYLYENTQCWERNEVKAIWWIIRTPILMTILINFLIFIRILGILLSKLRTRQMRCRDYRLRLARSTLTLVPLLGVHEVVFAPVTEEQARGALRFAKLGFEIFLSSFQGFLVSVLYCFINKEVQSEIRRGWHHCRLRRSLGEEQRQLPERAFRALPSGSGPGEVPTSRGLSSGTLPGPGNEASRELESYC
RUN DESCRIPTION: cell-based or functional assay
Starred links: 1 amine or outer side, 2 acyl side, 3 side chain; linkers in the order of their positions; H or OH if unused. Non-standard residues stand in square brackets, D forms with d. Groups on a side chain read outwards from the residue. No end group written: not given here. *: point of attachment. C20 diacid = O=C(O)CCCCCCCCCCCCCCCCCCC(=O)*; γGlu = O=C(O)[C@H](CCC(=O)[*:2])N[*:1]; αMeL = CC(C)C[C@](C)(N)C(=O)O; AEEA = NCCOCCOCC(=O)O; Aib = CC(C)(N)C(=O)O
Measured cAMP Rel EC50 (1% HSA), listed per entry for reference.
The response must be a number in nM with no trailing unit.

Example cases with answers are listed next.
| BINDER | RECORDED RESULT |
| --- | --- |
| YXQGTXTSDXXIXLDXKAAXEFIEXLIEGGPSSGAPPPSGX (C-terminal γGlu, amide; synthetic construct; SITE 2: note = 2-Aminoisobutyric Acid; SITE 6: note = alpha-methyl-2-fluoro-L-phenylalanine; SITE 10: note = 3-(4-Pyridyl)-L-alanine; SITE 11: note = alpha-methyl-L-serine; SITE 13: note = alpha-methyl-leucine; SITE 16: note = L-ornithine; SITE 17: note = Lysine is chemically mo) [Example 722] | 0.953 |
| YXQGTFTSDXSKXLDKKAQXAFIEYLIEGGPSSGAPPPSGS (non-natural residues; lipidated Lys AEEA-γGlu-C18 diacid; C-term amide; synthetic construct; SITE 2: note = 2-Aminoisobutyric Acid; SITE 10: note = 3-(4-Pyridyl)-L-alanine; SITE 13: note = alpha-methyl-leucine; SITE 17: note = Lysine is chemically modified through conjugation of the epsilon-amino group of the Lysine side chain with (2-[2-(2-Amino-ethoxy)-ethoxy]-acetyl)) [Example 908] | 26.7 |
| YXQGTFTSDXSQXLDXKAQXAFIEXLLEGGPSSGAPPPSGS (acylated Lys AEEA-γGlu-C18 diacid; non-natural residues; C-terminal amide; synthetic construct; SITE 2: note = 2-Aminoisobutyric Acid; SITE 10: note = 3-(4-Pyridyl)-L-alanine; SITE 13: note = alpha-methyl-leucine; SITE 16: note = L-ornithine; SITE 17: note = Lysine is chemically modified through conjugation of the epsilon-amino group of the Lysine side chain with (2-[2-(2-) [Example 911] | 26.6 |
| YXQGTXTSDXXIXLDXKAQXXFIEYLIEGGPSSGEPPPSGTGE (synthetic construct; SITE 2: note = 2-Aminoisobutyric Acid; SITE 6: note = alpha-methyl-2-fluoro-L-phenylalanine; SITE 10: note = 3-(4-Pyridyl)-L-alanine; SITE 11: note = alpha-methyl-L-serine; SITE 13: note = alpha-methyl-leucine; SITE 16: note = L-ornithine; SITE 17: note = Lysine is chemically mo) [Example 523] | 0.869 |
| YXQGTXTSDXXIXLDXKAQXEFIEXLIEGGPSSGEPPPGGE (non-natural residues; lipidated Lys AEEA-γGlu-C18 diacid; C-term amide; synthetic construct; SITE 2: note = 2-Aminoisobutyric Acid; SITE 6: note = alpha-methyl-2-fluoro-L-phenylalanine; SITE 10: note = 3-(4-Pyridyl)-L-alanine; SITE 11: note = alpha-methyl-L-serine; SITE 13: note = alpha-methyl-leucine; SITE 16: note = L-ornithine; SITE 17: note = Lysine is chemically mo) [Example 1145] | 0.848 |

Request: Please look up its cAMP Rel EC50 (1% HSA): Y[Aib]QGTFTSDYSI[αMeL]LDKQAAK([AEEA-AEEA-γGlu-C20 diacid])QFVEWLIA[Aib]GPSSGEPPPSEG-NH2 [Example 326]
Response: 83.7
